Test system: wheat (Triticum aestivum)
Test: Test A preemergence, wheat
Type: in vivo
Settings: 500 g ai/ha, 0 to 100 scale (0 no effect, 100 complete control)
Excerpt: Seeds of barnyardgrass (Echinochloa crus-galli), large crabgrass (Digitaria sanguinalis), giant foxtail (Setaria faberi), morningglory (Ipomoea spp.), pigweed (Amaranthus retroflexus), velvetleaf (Abutilon theophrasti), wheat (Triticum aestivum), and corn (Zea mays) were planted into a blend of loam soil and sand and treated preemergence with a directed soil spray using test chemicals formulated in a non-phytotoxic solvent mixture which included a surfactant. […]

Molecule	Plant response rating, Wheat
CC1(C)CC(S(=O)(=O)Cc2c(C(F)(F)F)nc3n(c2=O)CCCC3)=NO1	60
CC1(C)CC([S+]([O-])Cc2c(C(F)(F)F)nc3n(c2=O)CCCCC3)=NO1 (centres unmarked)	50
CC1(C)CC(S(=O)(=O)Cc2c(C(F)(F)F)nc3n(c2=O)CCCCC3)=NO1	50
CC1(C)CC([S+]([O-])Cc2c(C(F)(F)F)nc3ccon3c2=O)=NO1 (centres unmarked)	0
CC1(C)CC([S+]([O-])Cc2c(C(F)(F)C(F)(F)F)nc3n(c2=O)CCCC3)=NO1 (centres unmarked)	20
CC1(C)CC(S(=O)(=O)Cc2c(C(F)(F)F)nc3n(c2=O)CCS3)=NO1	0
CC1(C)CC([S+]([O-])Cc2c(C(F)(F)Cl)nc3n(c2=O)CCC3)=NO1 (centres unmarked)	0
CC1(C)CC([S+]([O-])Cc2c(C(F)(F)C(F)(F)F)nc3n(c2=O)CCS3)=NO1 (centres unmarked)	0
CC1(C)CC(S(=O)(=O)Cc2c(C(F)(F)F)nc3n(c2=O)CCCO3)=NO1	40
CC1(C)CC(S(=O)(=O)Cc2c(C(F)(F)F)nc3n(c2=O)CCO3)=NO1	60
CC1(C)CC(S(=O)(=O)Cc2c(C(F)(F)C(F)(F)F)nc3n(c2=O)CCC3)=NO1	50
Cc1cc2nc(C(F)(F)F)c(CS(=O)(=O)C3=NOC(C)(C)C3)c(=O)n2o1	0
Cc1con2c(=O)c(CS(=O)(=O)C3=NOC(C)(C)C3)c(C(F)(F)F)nc12	0
CCn1c(=O)c(C[S+]([O-])C2=NOC(C)(C)C2)nc2cccnc21 (centres unmarked)	0
CC1(C)CC(S(=O)(=O)Cc2c(C(F)(F)Cl)nc3n(c2=O)CCC3)=NO1	30
CC1(C)CC(S(=O)(=O)Cc2c(C(F)(F)Cl)nc3n(c2=O)CCCC3)=NO1	50
CC1(C)CC([S+]([O-])Cc2c(C(F)(F)C(F)(F)F)nc3n(c2=O)CCCS3)=NO1 (centres unmarked)	0

====

system: morningglory (Ipomoea coccinea); assay: Test B preemergence, morningglory; format: in vivo; conditions: 62 g ai/ha, scale 0 to 100
Each entry below carries its reported Plant response rating, Morningglory.
Measurement Type: Plant response rating, Morningglory

Compound	Tested On	Number
CC1(C)CC(S(=O)(=O)Cc2c(C(F)(F)C(F)(F)F)nc3n(c2=O)CCCC3)=NO1 [Compound 21]	morningglory (Ipomoea coccinea)	80
CC1(C)CC(S(=O)(=O)Cc2c(C(F)(F)Cl)nc3n(c2=O)CCC3)=NO1 [Compound 18]	morningglory (Ipomoea coccinea)	0
CC1(C)CC(S(=O)(=O)Cc2c(C(F)(F)F)nc3n(c2=O)CCS3)=NO1 [Compound 6]	morningglory (Ipomoea coccinea)	0
CC1(C)CC(S(=O)(=O)Cc2c(C(F)(F)F)nc3ccsn3c2=O)=NO1 [Compound 16]	morningglory (Ipomoea coccinea)	0
CC1(C)CC(S(=O)(=O)Cc2c(C(F)(F)F)nc3n(c2=O)CCC3)=NO1 [Compound 11]	morningglory (Ipomoea coccinea)	80
CC1(C)CC(S(=O)(=O)Cc2c(C(F)(F)C(F)(F)F)nc3n(c2=O)CCC3)=NO1 [Compound 22]	morningglory (Ipomoea coccinea)	70
CC1(C)CC(S(=O)(=O)Cc2c(C(F)(F)F)nc3n(c2=O)CCO3)=NO1 [Compound 2]	morningglory (Ipomoea coccinea)	0
CC1(C)CC(S(=O)(=O)Cc2c(C(F)(F)F)nc3n(c2=O)CCCC3)=NO1 [Compound 8]	morningglory (Ipomoea coccinea)	20
